tested on: firefly luciferase (FLuc); experiment: normalised percent inhibition of luminescence (vs positive and negative controls); higher = stronger inhibition; details: metal salt concentration 0.001 mM; 100 mM HEPES buffer
Quick reference for normalised percent inhibition among some compounds
VALUE KIND: normalised percent inhibition (%)

>  <COMPOUND>
O.O.O.O.O.O.O.O=S(=O)([O-])[O-].[Mg+2] [magnesium sulfate]

>  <VALUE KIND>
normalised percent inhibition

>  <UNIT OF MEASURE>
%

>  <RESULT NUMBER>
-24

$$$$
>  <COMPOUND>
O=[N+]([O-])[O-].O=[N+]([O-])[O-].[Cu+2] [copper(II) nitrate]

>  <VALUE KIND>
normalised percent inhibition

>  <UNIT OF MEASURE>
%

>  <RESULT NUMBER>
100

$$$$
>  <COMPOUND>
O=[N+]([O-])[O-].[Ag+] [silver nitrate]

>  <VALUE KIND>
normalised percent inhibition

>  <UNIT OF MEASURE>
%

>  <RESULT NUMBER>
100

$$$$
>  <COMPOUND>
O=[N+]([O-])[O-].O=[N+]([O-])[O-].[Zn+2] [zinc nitrate]

>  <VALUE KIND>
normalised percent inhibition

>  <UNIT OF MEASURE>
%

>  <RESULT NUMBER>
47.4

$$$$

Every entry's value here was drawn from the supplement of paper PMC11628255.
